Below: a set of entries, each annotated with reported relative cell number.
Tested on: HCC-38
Experiment: relative cell number vs DMSO control (72 h) (% of DMSO); higher = less growth inhibition (more cells)
Details: sgRNA knockout: sgNT, 10000 nM
Test readout: relative cell number

CC(C)(C#N)c1ccc(N2C(=O)OCc3cnc4ccc(-c5cnc6ccccc6c5)cc4c32)cc1: 33.2
COc1cccc2cc(-c3nc([C@H]4CC[C@H](C(=O)O)CC4)n4ncnc(N)c34)[nH]c12 [OSI027]: 31.2
CC(C)[C@H](O)C(=O)N[C@@H](C)C(=O)N[C@@H]1C(=O)N(C)CCc2ccccc21 [Semagacestat]: 84.4
C=C(c1ccc(C(=O)O)cc1)c1cc2c(cc1C)C(C)(C)CCC2(C)C [Bexarotene]: 108
CN/C(=N\CCSCc1nc[nH]c1C)NC#N [Cimetidine]: 101
Cc1nc(Nc2n[nH]c3c2CN(C(=O)N[C@H](CN(C)C)c2ccccc2)C3(C)C)c2sccc2n1: 13.5
CN1CCN(CCOc2cc(OC3CCOCC3)c3c(Nc4c(Cl)ccc5c4OCO5)ncnc3c2)CC1 [Saracatinib]: 70.5
Cc1cc(N2CCOCC2)cc2[nH]c(-c3c(NC[C@@H](O)c4cccc(Cl)c4)cc[nH]c3=O)nc12: 30.7
O=C(c1cc(Cc2n[nH]c(=O)c3ccccc23)ccc1F)N1CCN(C(=O)C2CC2)CC1 [Olaparib]: 62.5
CC[C@H](C)C(=O)O[C@H]1C[C@@H](C)C=C2C=C[C@H](C)[C@H](CC[C@@H]3C[C@@H](O)CC(=O)O3)[C@H]21 [Lovastatin]: 73.4
N[C@@H](CC(=O)N1CCn2c(nnc2C(F)(F)F)C1)Cc1cc(F)c(F)cc1F [Sitagliptin]: 92.2
CCC(C)(C)C(=O)O[C@H]1C[C@@H](C)C=C2C=C[C@H](C)[C@H](CC[C@@H]3C[C@@H](O)CC(=O)O3)[C@H]21 [Simvastatin]: 87.5
COC(=O)/C=C/C(=O)OC [DimethylFumarate]: 91.3
Nc1nc(Cl)nc2c1ncn2[C@@H]1O[C@H](CO)[C@@H](O)[C@@H]1F [Clofarabine]: 12.4
CCC[C@H](NC(=O)/C(C#N)=C/c1cccc(Br)n1)c1ccccc1 [WP1130]: 6.78
COc1ccc(-c2ccc3c(N4CCOCC4)nc(N4C[C@@H](C)O[C@@H](C)C4)nc3n2)cc1CO: 48.9
C=C1C[C@@H]2[C@H](CC[C@]3(C)C(=O)CC[C@@H]23)[C@@]2(C)C=CC(=O)C=C12 [Exemestane]: 109
